Experiment: Approximate solubility in water at different pH values
Details: pH 4.5, aqueous buffer
readout_label: solubility
Note: a bare number is incomplete; add the unit.

Give the measured solubility for CC[C@H]1OC(=O)[C@H](C)[C@@H](O[C@H]2C[C@@](C)(OC)[C@@H](O)[C@H](C)O2)[C@H](C)[C@@H](O[C@@H]2O[C@H](C)C[C@H](N(C)C)[C@H]2O)[C@](C)(OC)C[C@@H](C)C(=O)[C@H](C)[C@@H](O)[C@]1(C)O
3900 µg/mL

----------
Experiment: physchem
Conditions: pH 6, aqueous buffer
readout_label: solubility (µg/mL)
One number for each entry, in µg/mL.

Write down solubility measured for item CC[C@H]1OC(=O)[C@H](C)[C@@H](O[C@H]2C[C@@](C)(OC)[C@@H](O)[C@H](C)O2)[C@H](C)[C@@H](O[C@@H]2O[C@H](C)C[C@H](N(C)C)[C@H]2O)[C@](C)(O)C[C@](C)(F)C(=O)[C@H](C)[C@@H](O)[C@]1(C)O
300

----------
Assay: physchem
Settings: pH 4.5, aqueous buffer
readout_label: solubility

Look up and state reported solubility for CC[C@H]1OC(=O)[C@H](C)[C@@H](O[C@H]2C[C@@](C)(OC)[C@@H](O)[C@H](C)O2)[C@H](C)[C@@H](O[C@@H]2O[C@H](C)C[C@H](N(C)C)[C@H]2O)[C@](C)(O)C[C@](C)(F)C(=O)[C@H](C)[C@@H](O)[C@]1(C)O [flurithromycin]
4200 µg/mL

----------
Assay: Approximate solubility in water at different pH values
Conditions: pH 6, aqueous buffer
readout_label: solubility (µg/mL)
Answers are plain numbers, in µg/mL.

State, in one line, measured solubility of CC[C@H]1OC(=O)[C@H](C)[C@@H](O[C@H]2C[C@@](C)(OC)[C@@H](O)[C@H](C)O2)[C@H](C)[C@@H](O[C@@H]2O[C@H](C)C[C@H](N(C)C)[C@H]2O)[C@](C)(OC)C[C@@H](C)C(=O)[C@H](C)[C@@H](O)[C@]1(C)O
3300

----------
Test: physchem
Settings: pH 2, simulated gastric fluid
readout_label: solubility (mg/mL)
Numbers only, in mg/mL.

Identify the reported solubility for the following entry. CC[C@H]1OC(=O)[C@H](C)[C@@H](O[C@H]2C[C@@](C)(OC)[C@@H](O)[C@H](C)O2)[C@H](C)[C@@H](O[C@@H]2O[C@H](C)C[C@H](N(C)C)[C@H]2O)[C@](C)(O)C[C@](C)(F)C(=O)[C@H](C)[C@@H](O)[C@]1(C)O
11.8
